Where these numbers come from: PubChem BioAssay AID449750

Test: non-covalent RecA intein splicing inhibitors, dose response, biochemical, cell-free, fluorescence, secondary screen (AID 449750)
Calls of active or inactive are those of the source. No rule for the calls is given here.
Outcome codes: active, inactive

COMPOUND: CC1=NN(c2ccc(C)cc2C)C(=O)C1C(c1cccc(O)c1)C1C(=O)N(c2ccc(C)cc2C)N=C1C (stereo not drawn)
CAT: active
--
COMPOUND: CCCCCCCCCCOC(=O)Cn1c(COc2ccccc2C)[n+](C)c2ccccc21
CAT: active
--
COMPOUND: COCCN(C(=O)CCl)C(C(=O)NC1CCCCC1)c1ccccc1C (stereo not drawn)
CAT: active
--
COMPOUND: Cc1ccc(N(CCC#N)C(=O)CCl)cc1C
CAT: active
--
COMPOUND: Nc1nc(C(=O)N2CCOCC2)nn1C(=O)c1ccc(Cl)cc1
CAT: inactive
--
COMPOUND: CCOC(=O)c1c(C)oc2c1c1c(c3ccccc32)OCN(CCCC(=O)O)C1
CAT: active
--
COMPOUND: COC(=O)c1ccccc1-c1ccc(C(c2c(C)[nH][nH]c2=O)c2c(C)[nH][nH]c2=O)o1
CAT: active
--
COMPOUND: Fc1ccc(-[n+]2nc(Nc3ccccc3)sc2-c2c3ccccc3cc3ccccc23)cc1
CAT: active
--
COMPOUND: Cc1cccc(NC2=C(Cl)C(=O)OC2OC(=O)c2ccco2)c1 (stereo not drawn)
CAT: inactive
--
COMPOUND: CCc1ccc(S(=O)(=O)Nc2ccc(O)c3ccccc23)cc1
CAT: active
--
COMPOUND: CCCC1C(C#N)=C(N)Oc2n[nH]c(C(C)(C)C)c21 (stereo not drawn)
CAT: active
--
COMPOUND: COc1ccc(C(c2c(C)[nH][nH]c2=O)c2c(C)[nH][nH]c2=O)cc1Br
CAT: active
--
COMPOUND: N#Cc1ccc(-n2c(-c3ccccc3)nnc2-c2ccccc2)cc1C#N
CAT: inactive
--
COMPOUND: O=[N+]([O-])c1cc(O)c2ncccc2c1
CAT: active
--
COMPOUND: NS(=O)(=O)c1ccc(N=Nc2ccc(=O)[nH]c2O)cc1
CAT: active
--
COMPOUND: Cc1c(OCC(=O)Nc2cccnc2)ccc2c3c(c(=O)oc12)CCC3
CAT: inactive
--
COMPOUND: O=C(CCl)NN=C(c1ccccc1)c1ccccc1
CAT: active
--
COMPOUND: Cc1nn(Cc2ccccc2)c2c1C(c1cccnc1)C(C#N)=C(N)O2 (stereo not drawn)
CAT: inactive
--
COMPOUND: CCN(CC)S(=O)(=O)c1ccc(N2CCN(S(=O)(=O)c3ccccc3C#N)CC2)nc1
CAT: inactive
--
COMPOUND: CCCOC(=O)c1ccc(OC(=O)c2ccco2)cc1
CAT: inactive
--
COMPOUND: CC(C)c1[nH]nc2c1C(c1cccc(OC(=O)N3CCOCC3)c1)C(C#N)=C(N)O2 (stereo not drawn)
CAT: inactive
--
COMPOUND: O=C(CCl)N(CCc1ccccc1)CCc1ccccc1
CAT: active
--
COMPOUND: O=c1c2ccccc2nc2n1CCS2(=O)=O
CAT: inactive
